Field: activity change, positive = activation. Provide a value for each of the molecules that follow.
protocol-details: qHTS assay to identify small molecule agonists of the estrogen related receptor (ERR) signaling pathway from Tox21 library (AID 1224849); further: on the % scale 0 is the no-effect control and ±100 the full control effect; nearly all actives have a fitted effect of over 15% in size
experimental-setup: ERR reporter cell line, ONE-Glo luciferase, 18 h; at 92.4 µM (top of the series)
The answer is to be given in %; state only the numeric part.

Briefly, activity change, positive = activation measured for COc1ccc(C(O)(c2cncnc2)C2CC2)cc1 (configuration not stated) : 1.33

Record Nc1ccc2c(c1)Cc1ccccc1-2 . Reported activity change, positive = activation: -8.59

Short answer for CCNC(=O)NC(=O)/C(C#N)=N/OC : activity change, positive = activation was -6.66

In plain terms, CCOP(=S)(S)OCC has a documented activity change, positive = activation of -3.44

Value of activity change, positive = activation reported for the molecule CCCCCCCCCCCC[N+](C)(C)CCOc1ccccc1 is -76.3

Record C=C(Cl)Cl , field activity change, positive = activation: -0.979

Lab note: C=C(C)C(=O)OCCCCOC(=O)C(=C)C gave activity change, positive = activation of 2.2

The molecule listed as CN(C)C(=O)Nc1cccc(OC(=O)NC(C)(C)C)c1 shows activity change, positive = activation equal to -15.7

Entry CCCC[N+](CCCC)(CCCC)CCCC ; activity change, positive = activation = -11.1

activity change, positive = activation for N#CC1(N=NC2(C#N)CCCCC2)CCCCC1 is -5.87

Note to self: activity change, positive = activation recorded for C=CCOC(=O)C(C)(C)OC(=O)c1cc(-n2c(=O)cc(C(F)(F)F)n(C)c2=O)ccc1Cl was -42.4

What the record says about CC(C)(C#N)C(C)(C)C#N : activity change, positive = activation is -14.1

The measured activity change, positive = activation associated with O=C(N[C@H]1CN2CCC1CC2)c1ccc2c(c1)OCCO2 reads 0.537

Input O=C(Cc1ccccc1)OCCc1ccccc1 . Output activity change, positive = activation: -0.535

For record CCCSP(=S)(OCC)Oc1ccc(SC)cc1 (configuration not stated) the listed activity change, positive = activation is 2.16

So for C=CCOCC1CO1 (configuration not stated) , the logged activity change, positive = activation turned out to be -3.54

// sample CCCCOC(=O)CCC(=O)OCCCC , its activity change, positive = activation was 0.0296

# activity change, positive = activation of COc1cc(CC(C)N)c(OC)cc1Br (configuration not stated) = -12.2

Sure, the documented activity change, positive = activation for CCOC(=O)c1cn2nc(OP(=S)(OCC)OCC)cc2nc1C is -40.1

For record CCOP(=S)(OCC)Oc1ccc(S(C)=O)cc1 (configuration not stated) the listed activity change, positive = activation is -5.68

The reported value for O=C(Cl)OCCOCCOC(=O)Cl in terms of activity change, positive = activation is 1.12

ClCc1ccccc1Cl has a reported activity change, positive = activation of 8.41

----------
experimental-system: Progesterone receptor (Homo sapiens) (UniProt P06401)
Sequence (P06401 whole entry, looked up): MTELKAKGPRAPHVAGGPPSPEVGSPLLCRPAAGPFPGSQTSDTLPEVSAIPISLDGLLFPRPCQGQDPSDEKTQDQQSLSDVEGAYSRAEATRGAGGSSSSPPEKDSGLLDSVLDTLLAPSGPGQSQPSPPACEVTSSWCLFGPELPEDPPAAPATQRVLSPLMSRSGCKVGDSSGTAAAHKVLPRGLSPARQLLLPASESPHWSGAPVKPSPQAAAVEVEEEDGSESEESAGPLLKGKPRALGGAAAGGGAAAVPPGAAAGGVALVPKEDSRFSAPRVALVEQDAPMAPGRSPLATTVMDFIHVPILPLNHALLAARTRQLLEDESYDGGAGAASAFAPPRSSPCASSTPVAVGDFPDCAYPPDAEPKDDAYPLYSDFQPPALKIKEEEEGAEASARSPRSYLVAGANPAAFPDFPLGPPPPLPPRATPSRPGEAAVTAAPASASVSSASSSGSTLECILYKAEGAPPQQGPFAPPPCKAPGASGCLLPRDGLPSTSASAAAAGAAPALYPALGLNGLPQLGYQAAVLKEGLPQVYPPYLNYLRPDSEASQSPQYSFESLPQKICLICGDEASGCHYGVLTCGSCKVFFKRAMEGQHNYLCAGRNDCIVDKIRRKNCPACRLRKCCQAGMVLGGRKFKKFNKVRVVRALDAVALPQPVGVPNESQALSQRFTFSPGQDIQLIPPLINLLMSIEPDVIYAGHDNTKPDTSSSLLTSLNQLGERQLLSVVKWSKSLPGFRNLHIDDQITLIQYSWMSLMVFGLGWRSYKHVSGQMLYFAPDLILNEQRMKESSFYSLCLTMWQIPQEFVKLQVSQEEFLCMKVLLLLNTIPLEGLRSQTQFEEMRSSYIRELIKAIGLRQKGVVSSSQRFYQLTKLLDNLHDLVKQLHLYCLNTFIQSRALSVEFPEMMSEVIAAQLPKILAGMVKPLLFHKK
protocol-details: qHTS assay to identify small molecule antagonists of the progesterone receptor (PR) signaling pathway (AID 1346795)
experimental-setup: PR-UAS-bla HEK293T, beta-lactamase FRET ratio, 16 h; series mostly up to 92.4 µM
Records with an inconclusive call do not appear. Calls of active or inactive are those of the source. Calls follow the shape of the dose curve; as a rule, active = well fitted inhibition curve with a large enough effect in the signal ratio in the repeat runs (not every such curve was filed as active); inconclusive = weak or mixed curves; inactive = flat fitted curve, though single readings scatter; the % refers to the signal ratio.
Write down one outcome, taken from active, inactive

Please share the test call associated with COc1ccccc1N1CCNCC1 .
inactive

Outcome logged for CCCC[P+](CC)(CCCC)CCCC (tested in a mixture with another compound) in this assay:
inactive

What did this assay record as the result for CC(Cc1ccccc1)NCc1ccccc1Cl (configuration not stated) ?
inactive

Check the results log: what was the call for CN1CC[C@]23c4c5ccc(O)c4O[C@H]2[C@@H](O)CC[C@H]3[C@H]1C5 ?
inactive

Dear all, I need the recorded test outcome for CCOC(=O)c1cncn1C(C)c1ccccc1 (configuration not stated) , thank you.
inactive

Tell me the recorded outcome of this test for C[C@H](N)[C@H](O)c1ccc(O)c(O)c1 .
inactive

Record request — test call for CN(C)C(=O)Nc1cccc(OC(=O)NC(C)(C)C)c1
inactive

Could you kindly confirm the outcome this assay logged for CCCC[N+](CCCC)(CCCC)CCCC ?
inactive

Fill in: this test's call for COP(=O)(OC)OC(Br)C(Cl)(Cl)Br (configuration not stated) is ___
inactive

Hello, I am checking results. What call was entered for CCOP(=O)(O)C(N)=O ?
inactive

What call does the record list for CCCCCBr ?
inactive

Record lookup: outcome of this test for Cc1cccc(C)c1NC1=NCCCS1 ?
inactive

For this compound, state the assay outcome: O=C(O)c1ccc(=O)[nH]c1
inactive

Hi, sorry to bother you, what did the test record for CCC1(CCC(C)C)C(=O)NC(=O)NC1=O ?
inactive

How did this test come out for N#CC(C#N)=C(C#N)C#N ?
inactive

I would be grateful if you could indicate the recorded call for O=C(CCl)CCl .
inactive

Can you look up the reported call for Clc1ccccc1 for me?
inactive

# fetch the recorded call for CCC1CCC(=O)O1 (configuration not stated) here
inactive

Tell me the recorded outcome of this test for COc1cc(CC#N)cc(OC)c1OC .
inactive

Lab log entry: Cc1cnc(C2=NC(C)(C(C)C)C(=O)N2)c(C(=O)O)c1 (configuration not stated) — outcome as called in the assay?
inactive

I would be grateful if you could indicate the recorded call for CCCCC(CC)COC(=O)c1c(Br)c(Br)c(Br)c(Br)c1C(=O)OCC(CC)CCCC (configuration not stated) .
inactive

Check the results log: what was the call for CCOC(=O)NC(O)C(Cl)(Cl)Cl (configuration not stated) ?
inactive

Outcome? NCCc1cc(O)c(O)cc1O
inactive

Kindly provide the recorded test outcome for the following compound: CC1(C)[C@H](C(=O)O[C@H](C#N)c2cccc(Oc3ccccc3)c2)[C@@H]1C=C(Br)Br
active

Test call for this compound, please: Clc1ccc2ccccc2c1
inactive

What classification did C1CS1 end up with in this test?
inactive

Called result for CCCCC#N
inactive

----------
protocol-details: A CellTox Green Cytotoxicity Assay to monitor cytotoxicity in HEK293 cells - 8 hour (AID 1224884); further: nearly all actives have a fitted effect of over 35% in size
experimental-setup: CellTox Green fluorescence; series mostly up to 76.8 µM
Results filed as inconclusive are left out. The source made the active and inactive calls. Calls follow the shape of the dose curve; as a rule, active = well fitted activation curve with a large enough effect in the repeat runs; inconclusive = weak or mixed curves; inactive = flat fitted curve, though single readings scatter.
A correct response names exactly one class from active, inactive

# outcome recorded in this test, key = C=CCc1ccc(OC(=O)Cc2ccccc2)c(OC)c1
inactive

What is the recorded call for this molecule in the test? CC(=O)NNc1ccccc1
inactive

Hey, what did the test say about CN(C1CCCCC1)C1CCCCC1 ?
inactive

Outcome logged for CCCCCl in this assay:
inactive

Tell me the recorded outcome of this test for CON(C)C(=O)Nc1ccc(Cl)cc1 .
inactive

Entry C[N+](C)(C)CC1CO1 (centres undefined) : call = ?
inactive

For this molecule, state the assay outcome: Nc1ccc2c(c1)Cc1ccccc1-2
inactive

Assay result, entry CCCCC(CC)CO[N+](=O)[O-] (centres undefined) — outcome?
inactive

What was the test verdict on FC(Cl)(Cl)C(F)(Cl)Cl ?
inactive

What outcome does the record of this test show for C[C@]12C=CC3=C4CCC(=O)C=C4CC[C@H]3[C@@H]1CC[C@@H]2O ?
inactive

Which result was noted for this molecule in the test: CC(C)CCCCCCCOC(=O)c1ccccc1C(=O)OCCCCCCCC(C)C
inactive

Write down the call the test reported for this molecule. Item: O=C=NC1CCCCC1
inactive

Outcome logged for C=C(Cl)Cl in this assay:
inactive

Outcome? CC[N+]1(C)CCCC(OC(=O)C(O)(c2ccccc2)c2ccccc2)C1 (centres undefined)
inactive

// return assay outcome for CCc1ccccc1N
inactive

Test call, this molecule: COC(=O)Cc1ccccc1
inactive

Fill in: this test's call for CCCC1CCCCN1 (centres undefined) is ___
inactive

Write down the call the test reported for this molecule. Item: CCCC[P+](CC)(CCCC)CCCC (tested in a mixture with another compound)
inactive

Any idea what this test logged for CC(C)c1ccc(OP(=O)(Oc2ccc(C(C)C)cc2)Oc2ccc(C(C)C)cc2)cc1 ?
inactive

In this assay, the call recorded for Cc1ccc(N)c(C)c1 was what?
inactive

// param item: Clc1ccccc1 ; yields the recorded call
inactive

Per the records of this test, what outcome belongs to NC(=O)CF ?
inactive

Each molecule tested received a call. Report the one for NP(N)(=O)NC(=O)c1ccc(F)cc1 .
inactive

What outcome does the record of this test show for C[C@H]1[C@@H]2Cc3ccc(O)cc3[C@@]1(C)CCN2C ?
inactive

How did this test come out for C=CC(C)(CCC=C(C)C)OC(=O)c1ccccc1N (centres undefined) ?
inactive

Returns: the outcome recorded for C=CCc1ccccc1O in this assay.
inactive

Test call, this molecule: Cc1ncc(C[n+]2csc(CCO)c2C)c(N)n1
inactive

Answer briefly: the call reported for C=CCSSCC=C in this assay.
active

Please share the test call associated with Cc1cccc(C)c1NC1=NCCCS1 .
inactive
